# Target System: Rhodesain (Trypanosoma brucei rhodesiense) (UniProt Q95PM0)
# Sequence (Q95PM0 1-450): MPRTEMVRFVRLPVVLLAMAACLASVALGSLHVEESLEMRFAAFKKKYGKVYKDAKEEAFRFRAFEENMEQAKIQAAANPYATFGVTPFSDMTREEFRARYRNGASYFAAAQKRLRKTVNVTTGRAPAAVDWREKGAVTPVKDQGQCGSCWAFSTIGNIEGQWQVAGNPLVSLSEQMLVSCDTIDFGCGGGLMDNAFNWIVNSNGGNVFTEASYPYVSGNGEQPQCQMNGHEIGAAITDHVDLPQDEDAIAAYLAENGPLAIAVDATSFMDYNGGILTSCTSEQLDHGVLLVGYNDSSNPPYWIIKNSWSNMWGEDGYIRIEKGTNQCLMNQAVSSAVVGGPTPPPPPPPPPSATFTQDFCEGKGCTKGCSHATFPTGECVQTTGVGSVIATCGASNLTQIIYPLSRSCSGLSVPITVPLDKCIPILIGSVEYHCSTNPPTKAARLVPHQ
# Measurement Notes: Binding affinity to recombinant Trypanosoma brucei rhodesiense rhodesain assessed as binding constant measured at second inhibition step using Cbz-Phe-Arg-AMC as fluorogenic substrate measured for 10 mins every 30 seconds by fluorescence microplate reader assay
Experimental Readout: K

What does the data say about its K? Entry: "CC(=O)/C=C/[C@H](CCc1ccccc1)NC(=O)[C@H](Cc1ccccc1)NC(=O)Nc1ccc(C)cc1"
10400 10^3/M/min

Consider next the compound "CC(=O)/C=C/[C@H](CCc1ccccc1)NC(=O)[C@H](CC(C)C)NC(=O)Nc1ccc(Cl)cc1C" in the same way.
14000 10^3/M/min

Now try "CC(=O)/C=C/[C@H](CCc1ccccc1)NC(=O)[C@H](CC(C)C)NC(=O)Nc1ccc(C)cc1" .
10400 10^3/M/min

How about "CC(=O)/C=C/[C@H](CCc1ccccc1)NC(=O)[C@H](Cc1ccccc1)NC(=O)Nc1ccccc1" ?
16700 10^3/M/min

Same question, "CC(=O)/C=C/[C@H](CCc1ccccc1)NC(=O)[C@H](Cc1ccccc1)NC(=O)Nc1ccc(Cl)cc1C" this time
14700 10^3/M/min
